Target: T1, Human EphA2 (Ecto) (Human, UniProt P29317 24-537)
T1 construct: extracellular domain; in-house)
T1 sequence (P29317 24-537): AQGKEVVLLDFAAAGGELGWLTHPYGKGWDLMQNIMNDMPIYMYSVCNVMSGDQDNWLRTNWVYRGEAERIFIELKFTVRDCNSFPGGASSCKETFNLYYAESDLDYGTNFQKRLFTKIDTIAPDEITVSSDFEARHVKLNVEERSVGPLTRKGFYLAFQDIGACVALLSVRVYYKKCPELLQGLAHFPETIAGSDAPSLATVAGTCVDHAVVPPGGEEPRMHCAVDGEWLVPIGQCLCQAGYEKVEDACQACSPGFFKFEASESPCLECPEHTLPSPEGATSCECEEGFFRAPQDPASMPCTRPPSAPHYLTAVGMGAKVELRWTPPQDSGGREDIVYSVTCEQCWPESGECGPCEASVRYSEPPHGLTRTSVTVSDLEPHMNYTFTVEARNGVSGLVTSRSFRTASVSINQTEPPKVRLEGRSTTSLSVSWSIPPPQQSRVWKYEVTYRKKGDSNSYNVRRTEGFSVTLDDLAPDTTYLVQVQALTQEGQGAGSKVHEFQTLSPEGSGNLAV
Experiment: FP competition; tracer Reference Compound B
Starred links: 1 amine or outer side, 2 acyl side, 3 side chain; linkers in the order of their positions; H or OH if unused. Positions of bridges follow the written chain, without caps; N, C: chain ends. No end group written: not given here. TATA = O=C(CC[*:1])N1CN(C(=O)CC[*:2])CN(C(=O)CC[*:3])C1
Recorded pKi by entry
Convention used: pKi is expressed as -log10 of the molar concentration.

Below, each entry is followed by its recorded pKi result.
ACSPTPACAVQNLCA (linker 2-8-14 via TATA) [Bicycle Compound Number 31 (TATA scaffold), ACSPTPACAVQNLCA] :: 6.75
ACQPSNHCAFMNYCA (linker 2-8-14 via TATA) [Bicycle Compound Number 30 (TATA scaffold), ACQPSNHCAFMNYCA] :: 6.73

Here is another binder to look at.
Qu. So what's the measured pKi for this one? ACYVGKECAYMNVCA (linker 2-8-14 via TATA) [Bicycle Compound Number 29 (TATA scaffold), ACYVGKECAYMNVCA]
Ans. 6.97
